Test System: DNA dC->dU-editing enzyme APOBEC-3F (Homo sapiens)
Assay Method Text: qHTS for inhibitors of Vif-A3F interactions: Cherry picks counterscreen; also: nearly all actives have a fitted effect of over 65% in size; also: potency is read from the fitted curve at half-maximal effect
Stated Conditions: HeLa A3F-eYFP/Vif cells, eYFP fluorescence, 24 h; series mostly up to 46.1 µM
The campaign covered roughly 2,100 compounds. About 1,100 (52%) were called active. About 29% were inconclusive and are not listed. So high a share suggests a set chosen from earlier hits. This is one part of the list.
Property Measured: Potency

> print(dat)
                                   compound                               test.system            result
1  Nc1c(C(=O)Nc2ccc(S(=O)(=O)N3CCCC3)cc2)sc2nc3ccc(OC(F)(F)F)cc3cc12  DNA dC->dU-editing enzyme APOBEC-3F (Homo sapiens)  23.1 µM (active)
2  O=C(NCc1ccc2c(c1)OCO2)c1cc([N+](=O)[O-])ccc1N1CCOCC1  DNA dC->dU-editing enzyme APOBEC-3F (Homo sapiens)  4.98 µM (active)
3  O=C1CC(c2cc(Br)ccc2F)c2cc3c(cc2N1)CCC3 (configuration not stated)  DNA dC->dU-editing enzyme APOBEC-3F (Homo sapiens)  1.12 µM (active)
4  CCOC(=O)c1c(NC(=O)CSc2nc3ccc(OC)cc3[nH]2)sc2c1CC(C)(C)NC2(C)C  DNA dC->dU-editing enzyme APOBEC-3F (Homo sapiens)          inactive
5   C1=Cc2ccccc2/C1=C\c1cc2c3c(c1)CCCN3CCC2  DNA dC->dU-editing enzyme APOBEC-3F (Homo sapiens)  16.4 µM (active)

[Q] For the compound Cn1cc(/C=C2\SC(=O)N(c3ccccc3)C2=O)c2ccccc21 , give its measured Potency value.
[A] 16.4 µM (active)

[Q] For the compound CCOc1cc(/C=C(/C#N)C(=O)Nc2ccc(O)cc2)cc(Br)c1O , give its measured Potency value.
[A] 15.8 µM (active)

[Q] For the compound COc1cccc(NC(=O)c2sc3nc(C)c(C(=O)Nc4ccc(C)cc4C)c(-c4ccco4)c3c2N)c1 , give its measured Potency value.
[A] inactive

[Q] For the compound CC(C)(C)NC(=S)N/N=C\c1ccc(-c2ccc([N+](=O)[O-])cc2)o1 , give its measured Potency value.
[A] 18.4 µM (active)

---

Test System: DNA dC->dU-editing enzyme APOBEC-3F (Homo sapiens)
Assay Method Text: qHTS for inhibitors of Vif-A3F interactions: Cherry picks counterscreen; also: nearly all actives have a fitted effect of over 65% in size
Stated Conditions: HeLa A3F-eYFP/Vif cells, eYFP fluorescence, 24 h; series mostly up to 46.1 µM
About 1,100 (52%) of roughly 2,100 compounds were called active. Not shown: some 29% with an inconclusive outcome. Calls follow the shape of the dose curve; as a rule, active = well fitted inhibition curve with a large enough effect; inconclusive = small, poorly fitted or top-dose-only effect; inactive = no such curve, though single readings can be large or run the other way. So high a share suggests a set chosen from earlier hits. This is one part of the list.
Can you answer with just one of these options? 1 (active), -1 (inactive)

[Q] Hey, what did the test say about CC1CCN(C(=O)C(C)Sc2nc(-c3ccccc3)cc(C(F)(F)F)n2)CC1 (stereo not given) ?
[A] -1

[Q] Hey, what did the test say about CC12CC3CC(C)(C1)CC(C(=O)NC(=S)N1CCOCC1)(C3)C2 ?
[A] -1

[Q] Hey, what did the test say about CN(C)c1ccc(/C=C/c2ccnc3ccccc23)c(N)c1 ?
[A] 1

[Q] Hey, what did the test say about C(=C\c1c[nH]c2ccccc12)/c1ccc2ccccc2n1 ?
[A] 1

[Q] Hey, what did the test say about CCS(=O)(=O)c1nn2c(N)c(/C=C3/C=CC(=O)C(OC)=C3)c(=O)nc2s1 ?
[A] -1

[Q] Hey, what did the test say about CCOC(=O)/C=c1/s/c(=C/c2ccc3cc(OC)ccc3c2)c(=O)n1CC(=O)NCC1CCCO1 (stereo not given) ?
[A] 1

[Q] Hey, what did the test say about Cc1cc(C)c(C(=O)N(CCN(C)C)CC2CCCN(Cc3ccccc3F)C2)o1 (stereo not given) ?
[A] -1

[Q] Hey, what did the test say about O=c1[nH]c(NCc2ccco2)nnc1Cc1ccccc1Cl ?
[A] 1

[Q] Hey, what did the test say about CCOC(=O)/C=c1\s/c(=C\c2ccccc2C)c(=O)n1CC(=O)NCc1ccc2c(c1)OCO2 ?
[A] 1

[Q] Hey, what did the test say about CC(=O)c1cccc(NC(=O)/C=C/c2ccc([N+](=O)[O-])s2)c1 ?
[A] 1

---

Test System: DNA dC->dU-editing enzyme APOBEC-3F (Homo sapiens)
Assay Method Text: qHTS for inhibitors of Vif-A3F interactions: Cherry picks counterscreen; also: nearly all actives have a fitted effect of over 65% in size
Stated Conditions: HeLa A3F-eYFP/Vif cells, eYFP fluorescence, 24 h; series mostly up to 46.1 µM
Hit rate of the full screen: of about 2,100 compounds, about 1,100 (52%) were called active. Not shown: some 29% with an inconclusive outcome. Calls come from the whole dose curve; as a rule, active = well fitted inhibition curve with a large enough effect; inconclusive = small, poorly fitted or top-dose-only effect; inactive = no such curve, though single readings can be large or run the other way. The set was probably picked from earlier hits. The list shows a part of the results.
Can you answer with just one of these options? class 1 = active, class 0 = inactive

[Q] Hey, what did the test say about CSc1cccc(NC(=O)c2cc3c(COC(C)=O)cnc(C)c3oc2=O)c1 ?
[A] class 0

[Q] Hey, what did the test say about CCN(CC)c1ccc(/C=N/NC(=S)NC)c(O)c1 ?
[A] class 0

[Q] Hey, what did the test say about Cc1cc(/C=C2\SC(=Nc3ccccc3)NC2=O)c(C)n1-c1ccc(S(N)(=O)=O)cc1 ?
[A] class 1

[Q] Hey, what did the test say about O=C(Nc1nnc(-c2ccc3c(c2)CCCC3)o1)c1c(F)cccc1F ?
[A] class 0

[Q] Hey, what did the test say about Cc1cccc(C(=O)Nc2nnc(C3=COCCO3)o2)c1 ?
[A] class 0

[Q] Hey, what did the test say about COc1cc(/C=C(\C#N)c2nc3ccccc3[nH]2)ccc1O ?
[A] class 0

[Q] Hey, what did the test say about O=[N+]([O-])c1cc(Cl)c2cccnc2c1O ?
[A] class 0

[Q] Hey, what did the test say about C=CCN=c1scc(-c2ccc(F)cc2)n1/N=C/c1ccccn1 ?
[A] class 0

[Q] Hey, what did the test say about COc1ccc(C(=O)c2sc3nc4c(c(C(F)(F)F)c3c2N)CN(C(C)=O)CC4)cc1OC ?
[A] class 1

[Q] Hey, what did the test say about O=C(Nc1cc(Cl)ccc1-n1cncn1)c1ccc([N+](=O)[O-])s1 ?
[A] class 1

[Q] Hey, what did the test say about O=C(CCl)N1c2ccccc2Oc2ccc3ccccc3c21 ?
[A] class 1

[Q] Hey, what did the test say about O=Nc1ccc(O)c2ncccc12 ?
[A] class 0

[Q] Hey, what did the test say about COc1ccccc1/C=N/NC(=O)c1cc2c(OC)c(OC)ccc2[nH]1 ?
[A] class 1

[Q] Hey, what did the test say about CN(C)CCCNc1cc(N2CCN(C3CCCCC3)CC2)c2noc3c2c1C(=O)c1ccccc1-3 ?
[A] class 1

[Q] Hey, what did the test say about COc1cc2c(cc1OC)C(C)N(C(=O)c1cc(C)on1)CC2 (stereo not given) ?
[A] class 1

[Q] Hey, what did the test say about COc1ccc(OCCCC(=O)N2CCN(S(=O)(=O)c3cccc(F)c3)CC2)cc1 ?
[A] class 0

[Q] Hey, what did the test say about COc1ccc2c(n1)Sc1nc3ccccc3nc1N2 ?
[A] class 1

[Q] Hey, what did the test say about COc1cc(-c2noc(C)c2C#Cc2ccc(N)cc2)cc(OC)c1OC ?
[A] class 1

[Q] Hey, what did the test say about COc1ccccc1C1=NOC(COc2ccc3c(C)cc(=O)oc3c2)C1 (stereo not given) ?
[A] class 1

[Q] Hey, what did the test say about CN1C(=O)N(C)c2ccc(C=O)c3cccc1c23 ?
[A] class 0

[Q] Hey, what did the test say about N#CC1=C(N)Oc2cc(N)ccc2C1c1cccc(Br)c1 (stereo not given) ?
[A] class 1

[Q] Hey, what did the test say about CN(C)/C=N/C1=C(C#N)C(c2cccs2)c2ccc3ccccc3c2O1 (stereo not given) ?
[A] class 1

[Q] Hey, what did the test say about CCN(CC)c1ccc(/C=N/N=C(N)N)c(O)c1 ?
[A] class 1

[Q] Hey, what did the test say about Cc1ccc2nc(SCC(=O)Nc3ccc4sc(C)nc4c3)c(C#N)cc2c1 ?
[A] class 1

[Q] Hey, what did the test say about COc1cc(/C=C(\C#N)c2nc3ccc(C)cc3[nH]2)ccc1OC(C)C ?
[A] class 1

[Q] Hey, what did the test say about COCCCNC(=S)N/N=C/c1cccc(OC)c1O ?
[A] class 0

[Q] Hey, what did the test say about COc1cc(C2C3=C(COC3=O)Oc3cc4c(cc32)OCO4)ccc1OC(C)=O (stereo not given) ?
[A] class 1

[Q] Hey, what did the test say about c1cc(SC2CCCCC2)cc(-c2nc3cnccn3c2NC2CCCCC2)c1 ?
[A] class 0

[Q] Hey, what did the test say about Nc1[nH]c2cc([N+](=O)[O-])ccc2c1-c1ccccn1 ?
[A] class 1

[Q] Hey, what did the test say about O=C(Cn1c(=O)n(Cc2ccco2)c(=O)c2sc3ccccc3c21)Nc1ccccc1C(F)(F)F ?
[A] class 1

[Q] Hey, what did the test say about CCOc1cc(/C=C(\C#N)c2nc(-c3cccs3)c(NC(C)=O)s2)ccc1O ?
[A] class 0

[Q] Hey, what did the test say about CN1C(=O)/C(=C/c2ccccc2OCc2ccc(F)cc2)N(C)C1=S ?
[A] class 0

[Q] Hey, what did the test say about COc1cc(OC)c(/C=C/c2ccc3ccccc3[n+]2C)c(OC)c1 ?
[A] class 1

[Q] Hey, what did the test say about O=C(c1ccccn1)C1CCCN(Cc2cn[nH]c2-c2cc3ccccc3o2)C1 (stereo not given) ?
[A] class 0

[Q] Hey, what did the test say about CCOC(=O)c1sc2cc([N+](=O)[O-])cc(SCC(C)C)c2c1N ?
[A] class 1

[Q] Hey, what did the test say about Cc1cc(NC(=O)Nc2nnc(N(C)Cc3ccccc3)s2)ccc1Br ?
[A] class 0

[Q] Hey, what did the test say about CC(C)NC(=S)N/N=C1\CCCCc2ccccc21 ?
[A] class 0

[Q] Hey, what did the test say about CCOC(=O)c1cc(-c2ccccc2C)n(CC2CC(c3ccc(OC)cc3)=NO2)n1 (stereo not given) ?
[A] class 0

[Q] Hey, what did the test say about COc1cc2c(cc1OC)C(C)N(C(=O)c1cc(Cl)nc(Cl)c1)CC2 (stereo not given) ?
[A] class 0

[Q] Hey, what did the test say about CC1CC(C)(C)Nc2ccc(OC(=O)c3ccco3)cc21 (stereo not given) ?
[A] class 1

[Q] Hey, what did the test say about Oc1sc(C=Nc2ccc(F)cc2)c2ccccc12 ?
[A] class 1

[Q] Hey, what did the test say about Nc1c(C(=O)Nc2nccs2)sc2nc(-c3cccs3)cc(C(F)(F)F)c12 ?
[A] class 1

[Q] Hey, what did the test say about COc1cc(/C=C(\C#N)c2nc3ccccc3[nH]2)ccc1OCc1ccccc1F ?
[A] class 1

[Q] Hey, what did the test say about CC(=O)Nc1sc(/C(C#N)=C/c2ccc(Cl)c(Cl)c2)nc1-c1ccc(C)cc1 ?
[A] class 1

[Q] Hey, what did the test say about Clc1ccc(/C=N/NC2=Nc3cccc4cccc2c34)cc1 ?
[A] class 1
